A collection of compounds and their measured remaining at 336 h
assay: Stability of the compound in aqueous solution assessed as residual ratio at pH 5 up to 2 weeks by HPLC analysis relative to initial level; format: physicochemical
Where a SMILES comes first, the peptide text is derived from it. [ ]: non-standard residue; d: D form. Arg(Me) = CNC(=N)NCCC[C@H](N)C(=O)O; d4Pal = N[C@H](Cc1ccncc1)C(=O)O; azaGly = NNC(=O)O
Output spec: scalar in %, unitless text.

Item CNC(=N)NCCC[C@H](NC(=O)[C@H](CC(C)C)NC(=O)NNC(=O)[C@H](Cc1ccccc1)NC(=O)[C@@H](NC(=O)[C@H](CC(N)=O)NC(=O)[C@@H](Cc1c[nH]c2ccccc12)NC(=O)[C@@H](Cc1ccc(O)cc1)NC(C)=O)[C@@H](C)O)C(=O)N[C@@H](Cc1ccccc1)C(N)=O has what recorded remaining at 336 h? 96.3

Item CNC(=N)NCCC[C@H](NC(=O)[C@H](CC(C)C)NC(=O)NNC(=O)[C@H](Cc1ccccc1)NC(=O)[C@H](CO)NC(=O)[C@H](CC(N)=O)NC(=O)[C@@H](Cc1ccncc1)NC(=O)[C@H](N)Cc1ccc(O)cc1)C(=O)N[C@@H](Cc1ccccc1)C(N)=O [KISS1-305] (H-[dY][d4Pal]NSF[azaGly]L[Arg(Me)]F-NH2) has what recorded remaining at 336 h? 91.2

---

molecular target: KiSS-1 receptor (Homo sapiens, UniProt Q969F8); assay: Agonist activity at human KISS1R transfected in CHO cells assessed as intracellular calcium flux after 24 hrs by functional FLIPR assay
Sequence (Q969F8 whole entry): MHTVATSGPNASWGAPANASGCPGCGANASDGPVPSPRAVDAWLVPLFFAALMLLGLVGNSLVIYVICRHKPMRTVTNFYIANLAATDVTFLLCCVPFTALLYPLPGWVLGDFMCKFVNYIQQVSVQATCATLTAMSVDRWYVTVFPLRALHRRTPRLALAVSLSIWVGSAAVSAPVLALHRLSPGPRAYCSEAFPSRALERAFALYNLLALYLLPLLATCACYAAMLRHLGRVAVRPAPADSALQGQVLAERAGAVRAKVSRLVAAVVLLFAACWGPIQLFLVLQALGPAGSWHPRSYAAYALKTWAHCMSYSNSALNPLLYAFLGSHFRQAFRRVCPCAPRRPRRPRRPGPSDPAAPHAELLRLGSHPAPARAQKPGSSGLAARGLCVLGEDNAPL
Endpoint Label: pEC50
Here pEC50 is given on a logarithmic scale as minus log10 of the concentration in mol/L.

Sample answers from the record:
# Compound, pEC50
rows = [
    ("CNC(=N)NCCC[C@H](NC(=O)[C@H](CC(C)C)NC(=O)NNC(=O)[C@H](Cc1ccccc1)NC(=O)[C@@H](NC(=O)[C@H](CC(N)=O)NC(=O)[C@@H](Cc1ccncc1)NC(=O)[C@H](N)Cc1ccc(O)cc1)[C@@H](C)O)C(=O)N[C@@H](Cc1c[nH]c2ccccc12)C(N)=O", 8.80),
    ("CNC(=N)NCCC[C@H](NC(=O)[C@H](CC(C)C)NC(=O)NNC(=O)[C@H](Cc1ccccc1)NC(=O)[C@@H](NC(=O)[C@H](CC(N)=O)NC(=O)[C@@H](Cc1ccncc1)NC(=O)[C@@H](Cc1ccc(O)cc1)NC(C)=O)[C@@H](C)O)C(=O)N[C@@H](Cc1c[nH]c2ccccc12)C(N)=O", 9.12),
    ("CNC(=N)NCCC[C@H](NC(=O)[C@H](CC(C)C)NC(=O)NNC(=O)[C@H](Cc1ccccc1)NC(=O)[C@@H]1CC(O)CN1C(=O)[C@H](CC(N)=O)NC(=O)[C@@H](Cc1ccncc1)NC(=O)[C@H](N)Cc1ccc(O)cc1)C(=O)N[C@@H](Cc1c[nH]c2ccccc12)C(N)=O (some centres not stated)", 8.55),
    ("CC[C@H](NC(=O)[C@@H](Cc1c[nH]c2ccccc12)NC(=O)[C@H](N)Cc1ccc(O)cc1)C(=O)N[C@@H](CO)C(=O)N[C@@H](Cc1ccccc1)C(=O)NNC(=O)N[C@@H](CC(C)C)C(=O)N[C@@H](CCCNC(=N)NC)C(=O)N[C@@H](Cc1c[nH]c2ccccc12)C(N)=O", 9.19),
]

Item CNC(=N)NCCC[C@H](NC(=O)[C@H](CC(C)C)NC(=O)NNC(=O)[C@H](Cc1ccccc1)NC(=O)[C@@H](NC(=O)[C@H](C)NC(=O)[C@@H](Cc1c[nH]c2ccccc12)NC(=O)[C@H](N)Cc1ccc(O)cc1)[C@@H](C)O)C(=O)N[C@@H](Cc1c[nH]c2ccccc12)C(N)=O has what recorded pEC50? 9.20

Item CNC(=N)NCCC[C@H](NC(=O)[C@H](CC(C)C)NC(=O)NNC(=O)[C@H](Cc1ccccc1)NC(=O)[C@@H]1CCCN1C(=O)[C@H](CC(N)=O)NC(=O)[C@@H](Cc1ccncc1)NC(=O)[C@H](N)Cc1ccc(O)cc1)C(=O)N[C@@H](Cc1c[nH]c2ccccc12)C(N)=O has what recorded pEC50? 8.92

Item CNC(=N)NCCC[C@H](NC(=O)[C@H](CC(C)C)NC(=O)NNC(=O)[C@H](Cc1ccccc1)NC(=O)[C@@H](NC(=O)[C@H](CC(N)=O)NC(=O)[C@@H](Cc1ccncc1)NC(=O)[C@H](N)Cc1ccc(O)cc1)c1ccccc1)C(=O)N[C@@H](Cc1c[nH]c2ccccc12)C(N)=O has what recorded pEC50? 8.36
